This collection of values is drawn from patent US11246898B2.

- ASSAY_DETAILS: in vitro
- STUDY_CONDITIONS: African green monkey
PARAMETER_MEASURED: CC50

STRUCTURE_STRING	PARAMETER_MEASURED	REPORTED_MEASUREMENT
NC(=O)c1nc(F)c[nH]c1=O	CC50	> 1000 µM
